Where a name gives a salt, the structure may show the parent alone.
As a worked illustration, we turn to IC50 data collected for HSD17B13 (Homo sapiens (Human)).

{"columns": ["molecule", "observed property", "experimental value"],
 "data": [
  ["Cc1ccc(NC(=O)c2cc(Cl)c(O)c(Cl)n2)c2c(=O)n(Cc3ccccc3OC(F)(F)F)c(C(F)F)nc12 [Example 160]", "IC50", "≤ 100 nM"],
  ["O=C(Nc1cccc2ncn([C@@H]3C[C@H]3c3ccccc3)c(=O)c12)c1cc(Cl)c(O)c(Cl)n1 [Example 108, TFA Salt]", "IC50", "500 to 1000 nM"],
  ["N#Cc1cc(C(=O)Nc2cccc3ncn(Cc4cccc(C(F)(F)F)c4)c(=O)c23)cc(Cl)c1O [Example 68]", "IC50", "100 to 500 nM"]
]}

Switching to the query record.
If you can, please state the reported IC50 value of Cc1nc2c(Cl)ccc(NC(=O)c3cc(Cl)c(O)c(Cl)n3)c2c(=O)n1Cc1ncccc1C(F)(F)F [Example 165] .
100 to 500 nM

====

pIC50: −log10 of the molar value.
A set of molecules tested on HSD17B13 (Homo sapiens (Human)), with measured pIC50:

As a guide, the following entries are already answered.
{"columns": ["molecule", "pIC50"],
 "data": [
  ["O=C(Nc1cccc2ncn(Cc3ncccc3Cl)c(=O)c12)c1cc(Cl)c(O)c(Cl)n1 [Example 148]", "6.30 to 7.00"],
  ["CC(C)(C)CCn1cnc2cccc(NC(=O)c3cc(Cl)c(O)c(Cl)c3)c2c1=O [Example 57]", "6.30 to 7.00"],
  ["O=C(Nc1ccc(F)c2ncn(Cc3ccccc3OC(F)(F)F)c(=O)c12)c1cc(Cl)c(O)c(Cl)n1 [Example 133]", "6.30 to 7.00"]
]}

// next entry
State its pIC50 on HSD17B13 (Homo sapiens (Human)): O=C(Nc1cccc2ncn(Cc3ccccc3N3CCOCC3)c(=O)c12)c1cc(Cl)c(O)c(Cl)c1 [Example 84]
≥ 7.00

====

test target: HSD17B13 (Homo sapiens (Human), UniProt Q7Z5P4)
Sequence (Q7Z5P4 20-300): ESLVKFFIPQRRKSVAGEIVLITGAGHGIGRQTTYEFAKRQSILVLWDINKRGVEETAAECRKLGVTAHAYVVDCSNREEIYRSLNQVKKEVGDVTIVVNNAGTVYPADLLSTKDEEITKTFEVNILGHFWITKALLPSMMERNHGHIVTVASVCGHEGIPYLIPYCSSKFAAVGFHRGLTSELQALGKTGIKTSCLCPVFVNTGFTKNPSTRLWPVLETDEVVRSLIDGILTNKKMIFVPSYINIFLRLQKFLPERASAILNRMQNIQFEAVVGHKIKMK
observed property: IC50

Example entries and their recorded answers appear below.
{"columns": ["compound", "IC50"],
 "data": [
  ["[2H]C([2H])([2H])c1nc2c(F)ccc(NC(=O)c3cc(Cl)c(O)c(Cl)c3)c2c(=O)n1Cc1ccccc1C(F)(F)F [Example 171]", "100 to 500 nM"],
  ["O=C(Nc1cccc2ncn(Cc3cccnc3Cl)c(=O)c12)c1cc(Cl)c(O)c(Cl)n1 [Example 129]", "100 to 500 nM"],
  ["Cc1nc2c(F)ccc(NC(=O)c3cc(Cl)c(O)c(Cl)n3)c2c(=O)n1[C@H]1CC[C@@H]1c1ccccc1 [Example 207]", "100 to 500 nM"],
  ["O=C(NCc1ccccc1OC(F)(F)F)C1CCCN1C(=O)c1cc(Cl)c(O)c(Cl)c1 (centres unmarked) [Example 128]", "> 10000 nM"]
]}

Looking for the measured IC50 of O=C(Nc1ncsc1C(=O)NCc1ccccc1OC(F)(F)F)c1cc(Cl)c(O)c(Cl)c1 [Example 27] , can you help?
100 to 500 nM

====

These compounds were tested on UniProt Q7Z5P4; IC50 is the recorded read-out.

Some entries whose results are on file:
{"columns": ["compound", "IC50"],
 "data": [
  ["O=C(Nc1cccc2ncn([C@@H]3C[C@H]3c3ccccc3)c(=O)c12)c1cc(Cl)c(O)c(Cl)c1 (racemic)", "1000 to 10000 nM"],
  ["Cc1ccc(NC(=O)c2cc(Cl)c(O)c(Cl)c2)c2c(=O)n(Cc3ncccc3Cl)c(C)nc12", "100 to 500 nM"],
  ["O=C(Nc1ncsc1C(=O)NCc1ccccc1F)c1cc(Cl)c(O)c(Cl)c1", "1000 to 10000 nM"],
  ["Cc1ccc2ncn(Cc3ccccc3OC(F)(F)F)c(=O)c2c1NC(=O)c1cc(Cl)c(O)c(Cl)n1", "100 to 500 nM"]
]}

# query: IC50 of entry CC(c1ccccc1OC(F)(F)F)n1cnc2cccc(NC(=O)c3cc(Cl)c(O)c(Cl)c3)c2c1=O (stereo not shown)
100 to 500 nM

Need IC50 of `O=C(Nc1cccc2ncn(Cc3ccc(OCCO)cc3)c(=O)c12)c1cc(Cl)c(O)c(Cl)c1` , thanks.
100 to 500 nM

Record request: IC50 value, item `Cn1c(=O)n(Cc2ccccc2OC(F)(F)F)c(=O)c2c(NC(=O)c3cc(Cl)c(O)c(Cl)c3)cccc21`
≤ 100 nM
